Reference source: paper PMC9743148

# test: clinical
# test context: human, plasma, oral, 24 mg, Cmax, 24 mg t.i.w., cycle 1 Last Wednesday, mean
readout label: Cmax (ng/mL)
Respond with the bare value in ng/mL.

Lookup: Look at this compound and give its reported Cmax. C=CC(=O)N1CC[C@H](n2nc(C#Cc3cc(OC)cc(OC)c3)c3c(N)ncnc32)C1 [futibatinib]
Found: 361

###

# test: clinical
# test context: human, plasma, oral, 4 mg, AUC0–last, 4 mg q.d., cycle 1 Day 1, mean
readout label: AUC(0-t) (ng·h/mL)
Respond with the bare value in ng·h/mL.

Lookup: Look at this molecule and give its reported AUC(0-t). C=CC(=O)N1CC[C@H](n2nc(C#Cc3cc(OC)cc(OC)c3)c3c(N)ncnc32)C1
Found: 114
